test: DRUGMATRIX: Calcium Channel Type L, Dihydropyridine radioligand binding (ligand: [3H] Nitrendipine); assay type: cell membranes, Rattus norvegicus, Wistar, Cerebral cortex, Membrane; details: Not Active = under 50% inhibition at 10 µM

| molecule | Ki |
| --- | --- |
| CS(=O)(=O)Nc1ccc([N+](=O)[O-])cc1Oc1ccccc1 [NIMESULIDE] | Not Active |
| NS(=O)(=O)c1cc(C2(O)NC(=O)c3ccccc32)ccc1Cl (stereo not drawn) | Not Active |
| CC(=O)Oc1ccccc1C(=O)O | Not Active |

====

target: UniProtKB P12530; experiment: biochemical; format: tissue-based, Reticulocytes; settings: reticulocytes
Sequence (P12530 whole entry): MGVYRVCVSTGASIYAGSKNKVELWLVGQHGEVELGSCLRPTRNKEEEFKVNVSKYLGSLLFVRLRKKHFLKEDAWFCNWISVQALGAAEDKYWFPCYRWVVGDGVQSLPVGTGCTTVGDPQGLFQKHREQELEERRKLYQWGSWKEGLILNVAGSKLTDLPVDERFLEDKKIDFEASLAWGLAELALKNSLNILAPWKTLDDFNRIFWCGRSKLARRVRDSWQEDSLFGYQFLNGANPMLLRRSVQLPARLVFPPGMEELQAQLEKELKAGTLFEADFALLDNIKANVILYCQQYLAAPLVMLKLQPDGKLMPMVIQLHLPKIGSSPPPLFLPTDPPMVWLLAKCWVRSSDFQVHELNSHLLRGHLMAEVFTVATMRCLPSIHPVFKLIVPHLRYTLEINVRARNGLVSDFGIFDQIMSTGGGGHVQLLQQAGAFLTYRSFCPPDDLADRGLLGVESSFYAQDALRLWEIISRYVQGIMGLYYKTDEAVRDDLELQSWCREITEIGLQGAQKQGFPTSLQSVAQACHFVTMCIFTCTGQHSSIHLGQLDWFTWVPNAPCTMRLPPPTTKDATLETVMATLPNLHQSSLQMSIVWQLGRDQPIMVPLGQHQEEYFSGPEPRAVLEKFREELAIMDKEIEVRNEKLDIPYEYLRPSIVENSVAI
outcomeMeasure: IC50

| compound | IC50 |
| --- | --- |
| CN(C)C(=O)C(CCN1CCC(O)(c2ccc(Cl)cc2)CC1)(c1ccccc1)c1ccccc1 [LOPERAMIDE] | Not Active |
| N=C(N)c1ccc(OCCCCCOc2ccc(C(=N)N)cc2)cc1 | Not Active |
| O=C1C[C@@H]2OCC=C3CN4CC[C@]56c7ccccc7N1[C@H]5[C@H]2[C@H]3C[C@H]46 | Not Active |
| CN1CCC(=C2c3ccccc3CC(=O)c3sccc32)CC1 | Not Active |
| CC[C@]1(O)C[C@@H]2CN(CCc3c([nH]c4ccccc34)[C@@](C(=O)OC)(c3cc4c(cc3OC)N(C)[C@H]3[C@@](O)(C(N)=O)[C@H](O)[C@]5(CC)C=CCN6CC[C@]43[C@@H]65)C2)C1 | Not Active |
| CN1CCN(C2=Nc3cc(Cl)ccc3Nc3ccccc32)CC1 | Not Active |
| C#C[C@]1(O)CC[C@H]2[C@@H]3CCC4=CC(=O)CC[C@]4(C)[C@H]3CC[C@@]21C | Not Active |
| CC(C)NC[C@H](O)COc1cccc2ccccc12 | Not Active |

Reported IC50 for `CC(=O)OCC(COC(C)=O)OC(C)=O` : what is it?
Not Active

Reported IC50 for CCn1cc(C(=O)O)c(=O)c2cc(F)c(N3CCNC(C)C3)c(F)c21 (stereo unspecified) : what is it?
Not Active

Reported IC50 for CCCCCCCCNC(C)C(O)c1ccc(SC(C)C)cc1 (stereo unspecified) : what is it?
Not Active

Reported IC50 for `C[C@]12C=CC(=O)C=C1CC[C@@H]1[C@@H]2C(=O)C[C@@]2(C)[C@H]1CC[C@]2(O)C(=O)CO` : what is it?
Not Active

Reported IC50 for `CC(C)c1c(C(=O)Nc2ccccc2)c(-c2ccccc2)c(-c2ccc(F)cc2)n1CC[C@@H](O)C[C@@H](O)CC(=O)O` : what is it?
Not Active

Reported IC50 for CC1CCC(NC(=O)N(CCCl)N=O)CC1 (stereo unspecified) : what is it?
Not Active

Reported IC50 for O=C(O)CCNC(=O)c1ccc(/N=N/c2ccc(O)c(C(=O)O)c2)cc1 [BALSALAZIDE] : what is it?
Not Active

Reported IC50 for `CCCCC1=NC2(CCCC2)C(=O)N1Cc1ccc(-c2ccccc2-c2nnn[nH]2)cc1` : what is it?
Not Active
